# Test system: Salmonella typhimurium TA100
# Experiment notes: Ames test (reverse mutation test), TA100
# Format: cell-based
# Experimental conditions: S9 Mix +; dose 21 µg/plate
Here the recorded Number of revertant colonies TA100 is given for each entry.
Field format: numeric only.

Looking for the measured Number of revertant colonies TA100 of Cc1cccc(-n2nc(N)cc2-c2cccc(OC(F)(F)F)c2)c1 [Metabolite H] , can you help?
2000

Looking for the measured Number of revertant colonies TA100 of Cc1ccc(-n2nc(N)cc2-c2cccc(OCC(F)(F)F)c2)cc1 [Metabolite F] , can you help?
2888

More entries:
Looking for the measured Number of revertant colonies TA100 of Nc1cc(-c2cccc(OCC(F)(F)F)c2)n(-c2ccc(F)cc2)n1 [Metabolite E] , can you help?
2016

Looking for the measured Number of revertant colonies TA100 of Nc1cc(-c2cccc(OC(F)(F)F)c2)n(-c2cccc(F)c2)n1 [Metabolite G] , can you help?
506
